biological target: T1, mouse programmed cell death protein 1 Fc fusion protein (mPD-1-Fc), mPD-1 C60S (aa 25-167) (Mus musculus, UniProt Q02242, stabilised); assay: SPR; Carterra LSA; Fab from the ammonium sulfate precipitate of the culture supernatant immobilised on a NiHC200M chip; hPD-1 (1-1024 nM) or mPD-1-Fc (4-1024 nM) as analyte, fourfold dilution series, no regeneration; HBS-EP pH 7.4, 25 °C; medians over the spots of a construct, KD = koff/kon; settings: one partner purified
T1 construct: not cleaved; source: Expi293F, purified (Protein A, SEC; dimeric fraction); not shown: Fc (human), C-terminal, kept
Kindly state koff for each of the entries shown.
// return numeric value only (unit: s⁻¹, not printed)

Query block: Fill blank: measured koff of the binder toripalimab Fab L.S26Y (Fab, V domains shown, as the heavy chain of Sm3; light chain of Sm3 with this change; numbers count from the chain's first residue; source: Brevibacillus, culture supernatant (ammonium sulfate precipitate); not shown: 6xHis, C-terminal, kept; 6xHN, C-terminal, kept) VH: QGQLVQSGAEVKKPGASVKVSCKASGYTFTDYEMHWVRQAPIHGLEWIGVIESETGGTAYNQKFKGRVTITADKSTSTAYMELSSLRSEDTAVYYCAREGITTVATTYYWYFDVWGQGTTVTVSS VL: DVVMTQSPLSLPVTLGQPASISCRSYQSIVHSNGNTYLEWYLQKPGQSPQLLIYKVSNRFSGVPDRFSGSGSGTDFTLKISRVEAEDVGVYYCFQGSHVPLTFGQGTKLEIK is ____.
Result block: 0.00675

Query block: Fill blank: measured koff of the binder toripalimab Fab L.F60Y (Fab, V domains shown, as the heavy chain of Sm3; light chain of Sm3 with this change; numbers count from the chain's first residue; source: Brevibacillus, culture supernatant (ammonium sulfate precipitate); not shown: 6xHis, C-terminal, kept; 6xHN, C-terminal, kept) VH: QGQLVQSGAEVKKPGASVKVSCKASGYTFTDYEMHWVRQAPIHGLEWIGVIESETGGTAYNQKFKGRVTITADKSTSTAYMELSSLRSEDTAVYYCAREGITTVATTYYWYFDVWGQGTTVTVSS VL: DVVMTQSPLSLPVTLGQPASISCRSSQSIVHSNGNTYLEWYLQKPGQSPQLLIYKVSNRYSGVPDRFSGSGSGTDFTLKISRVEAEDVGVYYCFQGSHVPLTFGQGTKLEIK is ____.
Result block: 0.00463

Query block: Fill blank: measured koff of the binder toripalimab Fab H.A105Y (Fab, V domains shown, heavy chain of Sm3 with this change; numbers count from the chain's first residue; as the light chain of Sm3; source: Brevibacillus, culture supernatant (ammonium sulfate precipitate); not shown: 6xHis, C-terminal, kept; 6xHN, C-terminal, kept) VH: QGQLVQSGAEVKKPGASVKVSCKASGYTFTDYEMHWVRQAPIHGLEWIGVIESETGGTAYNQKFKGRVTITADKSTSTAYMELSSLRSEDTAVYYCAREGITTVYTTYYWYFDVWGQGTTVTVSS VL: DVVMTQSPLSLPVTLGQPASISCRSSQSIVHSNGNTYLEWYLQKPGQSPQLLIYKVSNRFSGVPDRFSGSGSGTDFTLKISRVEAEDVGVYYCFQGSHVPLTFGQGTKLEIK is ____.
Result block: 0.00349
